Please go through the items and note down their GI50.
Tested on: SF-539
experiment: NCI tumour cell line growth inhibition, 48 h
Calls of active or inactive are those of the source. Rule as the data show it: active = GI50 up to about 1.1 µM and inactive = higher.

[in] Consider the molecule CC(C)(C)[Si](C)(C)OCC1C=CC(n2cnc3c(N)ncnc32)O1 (configuration not stated) . State its measured GI50.
[out] > 47.4 µM (inactive)

[in] Quick one: give measured GI50 for CCOC(=O)CCNC(=O)c1cc(C)cc2c1Oc1c(cc(C)cc1C(=O)NCCC(=O)OCC)S2
[out] 50.4 µM (inactive)

[in] Look up and report measured GI50 for this entry: N#CCCN(c1ccc(/C=N/c2cccc([N+](=O)[O-])c2)cc1)S(=O)(=O)c1ccccc1
[out] > 100 µM (inactive)

[in] For the molecule COc1ccc(/C=C/c2sc3ccccc3[n+]2CCCCI)cc1OC , give its measured GI50 value.
[out] > 10 µM (inactive)

[in] Item N#CC1(CCCCl)CCCCC1 : provide GI50
[out] > 100 µM (inactive)

[in] Report GI50, nothing else, for this molecule: CCOc1ccccc1NC(=O)C1=C(C)NC(C)=C(C(=O)Nc2ccccc2OCC)C1c1ccc(NC(C)=O)cc1
[out] 41.7 µM (inactive)

[in] Specify reported GI50 for the molecule shown: O=c1c(C(c2ccc(/C=C/c3ccccc3)cc2)c2c(O)oc3cc(O)ccc3c2=O)c(O)oc2cc(O)ccc12
[out] > 100 µM (inactive)
